- protocol description: self-splicing fitness, log relative to wild type (ln ratio); higher = more splicing; Tetrahymena group I intron in knt gene, E. coli kanamycin selection, DiMSum; sequences stand for … in CUCUCU…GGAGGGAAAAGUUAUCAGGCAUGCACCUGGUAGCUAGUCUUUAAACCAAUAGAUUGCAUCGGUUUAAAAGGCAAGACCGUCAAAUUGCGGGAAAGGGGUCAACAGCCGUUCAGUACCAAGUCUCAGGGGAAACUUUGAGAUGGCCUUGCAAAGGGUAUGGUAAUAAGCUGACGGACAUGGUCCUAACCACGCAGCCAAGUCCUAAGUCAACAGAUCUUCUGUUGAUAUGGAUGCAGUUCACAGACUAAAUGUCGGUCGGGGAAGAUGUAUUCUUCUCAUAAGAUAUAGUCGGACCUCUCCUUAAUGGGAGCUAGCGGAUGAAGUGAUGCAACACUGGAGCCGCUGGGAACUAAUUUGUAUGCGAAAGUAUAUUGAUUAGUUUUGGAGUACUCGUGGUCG;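 also: selection with 25 µg/mL kanamycin versus none on LB agar overnight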
- assay context: 30 °C
observable: self-splicing fitness (ln)
One number for each entry.

# example entries with known answers
The recorded self-splicing fitness (ln) for CGUGAGCAAUAUUACGAACG is -2.89

self-splicing fitness (ln) reported for this sequence ACCUAGCAAUAUUACGGAUU : -1.23

For this sequence ( CACUAGCAAUAUUACGCACC ), measured self-splicing fitness (ln) is -2.29

According to the records, this sequence CGCUAGCAAUAUUACGGUUG displays self-splicing fitness (ln) of -2.07

// sample AGUCAGCAAUAUUACGUCGA , its self-splicing fitness (ln) was -0.487

Lab note: measured self-splicing fitness (ln) of GCACAGCAAUAUUACGAGGC was -2.95

The sequence listed as GAAGAGCAAUAUUACGAAGU has a reported self-splicing fitness (ln) of -3.98

The recorded self-splicing fitness (ln) for CCACAGCAAUAUUACGCAGU is -3.58

The sequence listed as UGUAAGCAAUAUUACGUUAG has a reported self-splicing fitness (ln) of -1.56

Lab note: CUUAAGCAAUAUUACGUCUU gave self-splicing fitness (ln) of -3.64

Go through the items and report each one's self-splicing fitness (ln).
1. AGACAGCAAUAUUACGUCAG
2. CAUAAGCAAUAUUACGGGGU
3. UCGCAGCAAUAUUACGCUAG
4. UGGUAGCAAUAUUACGCUAU
5. CCUUAGCAAUAUUACGAUAC
6. GAUUAGCAAUAUUACGCGCA

A)
[-2.3, -4.17, -4.54, -4.7, -1.67, -0.548]

###

- protocol description: self-splicing fitness, log relative to wild type (ln ratio); higher = more splicing; Tetrahymena group I intron in knt gene, E. coli kanamycin selection, DiMSum; sequences stand for … in CUCUCU…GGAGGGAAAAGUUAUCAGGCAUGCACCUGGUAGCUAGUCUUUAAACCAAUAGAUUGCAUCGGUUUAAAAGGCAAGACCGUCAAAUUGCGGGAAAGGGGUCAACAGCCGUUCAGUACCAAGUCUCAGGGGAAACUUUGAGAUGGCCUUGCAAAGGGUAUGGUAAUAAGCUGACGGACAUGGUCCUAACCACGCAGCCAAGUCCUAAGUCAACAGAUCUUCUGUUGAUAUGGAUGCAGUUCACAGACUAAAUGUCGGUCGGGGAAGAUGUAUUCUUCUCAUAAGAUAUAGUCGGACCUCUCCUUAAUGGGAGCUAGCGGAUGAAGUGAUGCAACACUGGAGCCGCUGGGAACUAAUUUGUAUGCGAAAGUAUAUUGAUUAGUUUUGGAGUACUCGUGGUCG
- assay context: 30 °C
observable: self-splicing fitness (ln)

For this sequence ( GGAGAGCAAUAUUACGAAGU ), measured self-splicing fitness (ln) is -3.48

For UAGGAGCAAUAUUACGAUGG the sequence record lists self-splicing fitness (ln) as -3.36

self-splicing fitness (ln) recorded for this sequence, CGGCAGCAAUAUUACGGUAA , is -2.56

Entry under test: ACAAAGCAAUAUUACGUACG . Its self-splicing fitness (ln) was -1.84

Per the records, this sequence ( AUUUAGCAAUAUUACGGACU ) has self-splicing fitness (ln) equal to 0.0925

Reported self-splicing fitness (ln) ( CUGCAGCAAUAUUACGUAGU ) = -4.54

Measured self-splicing fitness (ln), CGUAAGCAAUAUUACGUGGG : -3.43

According to the records, this sequence CAUUAGCAAUAUUACGCUCA displays self-splicing fitness (ln) of -1.21

Go through the items and report each one's self-splicing fitness (ln).
1. GCCCAGCAAUAUUACGGAUU
2. UGCCAGCAAUAUUACGCAGU
3. CAGAAGCAAUAUUACGGCUC
4. CGAUAGCAAUAUUACGGAGA
5. ACUCAGCAAUAUUACGUCCG
6. ACUUAGCAAUAUUACGCUGU
7. ACUAAGCAAUAUUACGCAUU

A)
1. 0.0408
2. -4.11
3. -2.64
4. -3.98
5. -2.16
6. -3.85
7. -1.82

Take each entry in turn and give its self-splicing fitness (ln).
1. AGACAGCAAUAUUACGGGGC
2. UCAAAGCAAUAUUACGACCA
3. AGAGAGCAAUAUUACGAUGA
4. CUAGAGCAAUAUUACGUUUC

A)
-3.97
-1.97
-3.27
-4.04

Hi team, please reply with self-splicing fitness (ln) for each item in this list.
1. AGAUAGCAAUAUUACGACAA
2. UAUCAGCAAUAUUACGAUUU
3. AGUAAGCAAUAUUACGUAUC
4. GAGUAGCAAUAUUACGAUCU
5. CUUGAGCAAUAUUACGUGUG
6. AUGUAGCAAUAUUACGCACA
7. CCUCAGCAAUAUUACGUACU
8. UUGGAGCAAUAUUACGGAUA

A)
1. -0.741
2. 0.142
3. -3.99
4. -1.59
5. -2.12
6. -0.084
7. -3.42
8. -2.85

Each sequence below has a reported value. Please supply its self-splicing fitness (ln).
1. CGGGAGCAAUAUUACGGAUG
2. GACUAGCAAUAUUACGUUCC
3. GUCUAGCAAUAUUACGCAUA
4. GAUAAGCAAUAUUACGUGGA
5. GCUUAGCAAUAUUACGCUCU

A)
1. -3.1
2. -3.69
3. -1.08
4. -3.96
5. -0.864

Dear colleague, could you please provide self-splicing fitness (ln) for the sequences listed below?
1. CAUUAGCAAUAUUACGGAAU
2. GCCAAGCAAUAUUACGUCAC
3. AGUGAGCAAUAUUACGUAAU
4. CCUCAGCAAUAUUACGUUCA

A)
-2.87
-3.8
-3.13
-2.61

Give me self-splicing fitness (ln) for each of these sequences, listed below.
1. GGCUAGCAAUAUUACGGUAC
2. GCUCAGCAAUAUUACGUCUU

A)
-1.91
-0.48

Items follow; give self-splicing fitness (ln) for each.
1. CAUAAGCAAUAUUACGUUAU
2. UUGUAGCAAUAUUACGGACG
3. UUCUAGCAAUAUUACGGUAC
4. CAAGAGCAAUAUUACGUCGU
5. AACCAGCAAUAUUACGAUCG
6. UUUCAGCAAUAUUACGACUA
7. GUGAAGCAAUAUUACGCUCG

A)
-4.62
-1.33
-4.34
-3.72
-0.866
0.605
-1.69

Please report self-splicing fitness (ln) for every entry that follows.
1. AGUUAGCAAUAUUACGUACG
2. CCCUAGCAAUAUUACGCUUA
3. GCAAAGCAAUAUUACGUUUA

A)
-0.205
-3.78
-2.29

###

- protocol description: self-splicing fitness, log relative to wild type (ln ratio); higher = more splicing; Tetrahymena group I intron in knt gene, E. coli kanamycin selection, DiMSum; sequences stand for … in CUCUCU…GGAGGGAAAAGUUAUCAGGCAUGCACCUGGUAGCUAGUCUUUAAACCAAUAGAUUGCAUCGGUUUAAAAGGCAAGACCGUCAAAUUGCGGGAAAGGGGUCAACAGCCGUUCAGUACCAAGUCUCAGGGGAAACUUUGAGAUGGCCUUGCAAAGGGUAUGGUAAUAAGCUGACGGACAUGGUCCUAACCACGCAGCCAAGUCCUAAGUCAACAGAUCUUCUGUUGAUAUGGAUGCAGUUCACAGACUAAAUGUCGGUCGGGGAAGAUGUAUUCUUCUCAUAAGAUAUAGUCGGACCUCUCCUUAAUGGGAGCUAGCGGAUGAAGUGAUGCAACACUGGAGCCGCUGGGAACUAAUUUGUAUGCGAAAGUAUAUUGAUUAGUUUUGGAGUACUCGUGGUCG
- assay context: 30 °C
observable: self-splicing fitness (ln)

Some sequences with recorded self-splicing fitness (ln):
Measured self-splicing fitness (ln), GUCAAGCAAUAUUACGCACG : -1.96

For record UUUAAGCAAUAUUACGUGAG the listed self-splicing fitness (ln) is -0.404

Entry under test: CCGAAGCAAUAUUACGUGAA . Its self-splicing fitness (ln) was -3.64

// field: self-splicing fitness (ln); key: GGAAAGCAAUAUUACGAAUU ; value = -1.96

For reference, reported self-splicing fitness (ln) for GGGGAGCAAUAUUACGGAUU stands at -3.35

// for each sequence below, give its self-splicing fitness (ln)
1. ACGAAGCAAUAUUACGUACA
2. UUAGAGCAAUAUUACGUUGG
3. CCCGAGCAAUAUUACGACAU
4. CGUUAGCAAUAUUACGUAGU
5. UGUGAGCAAUAUUACGGUGA
6. AGACAGCAAUAUUACGUGGG
7. UGGCAGCAAUAUUACGGUAG
8. UGACAGCAAUAUUACGUUUU

A)
1: -2.13; 2: -1.89; 3: -3.87; 4: -4.27; 5: -2.19; 6: -3.37; 7: -0.874; 8: -2.76

Each of the following entries comes with a recorded value; kindly state self-splicing fitness (ln) for each.
1. CGACAGCAAUAUUACGUCCA
2. CUCUAGCAAUAUUACGCCCU
3. AACCAGCAAUAUUACGACGA

A)
[-0.437, -3.28, -0.496]
